Biological target: Primate GnRH-2 receptor (Primate (from a CV-1 cell genome))
Experiment: cell-based or functional assay
[ ]: non-standard residue; d: D form. pGlu = O=C1CC[C@@H](C(=O)O)N1
RESULT TYPE: Ratio^a (EC50 relative to the EC50 of GnRH-2), luciferase activation

>  <BINDER>
[pGlu]HWSH[dK]WYPG-NH2 (SMILES NCCCC[C@@H](NC(=O)[C@H](Cc1c[nH]cn1)NC(=O)[C@H](CO)NC(=O)[C@H](Cc1c[nH]c2ccccc12)NC(=O)[C@H](Cc1c[nH]cn1)NC(=O)[C@@H]1CCC(=O)N1)C(=O)N[C@@H](Cc1c[nH]c2ccccc12)C(=O)N[C@@H](Cc1ccc(O)cc1)C(=O)N1CCC[C@H]1C(=O)NCC(N)=O) [[D-Lys^6]GnRH-2]

>  <ASSAY RESULT>
0.66 ratio to GnRH-2

$$$$

Next item in the queue.
Task: Value lookup for Ratio^a (EC50 relative to the EC50 of GnRH-2), luciferase activation; key = [pGlu]HWSH[dW]WYPG-NH2 (SMILES NC(=O)CNC(=O)[C@@H]1CCCN1C(=O)[C@H](Cc1ccc(O)cc1)NC(=O)[C@H](Cc1c[nH]c2ccccc12)NC(=O)[C@@H](Cc1c[nH]c2ccccc12)NC(=O)[C@H](Cc1c[nH]cn1)NC(=O)[C@H](CO)NC(=O)[C@H](Cc1c[nH]c2ccccc12)NC(=O)[C@H](Cc1c[nH]cn1)NC(=O)[C@@H]1CCC(=O)N1) [[D-Trp^6]GnRH-2]
Output: 1.2 ratio to GnRH-2
